# Test system: HCC-2998 colon
# Test summary: NCI-60 one-dose screen, 48 h (100 = growth as untreated, 0 = no growth, -100 = all killed)
# Test conditions: 10 µM unless noted
About 83,000 compounds went through this panel and 20% of them were active in at least one assay; those are over-represented in the sample as a whole.
Value type: growth (%)
Kindly provide the numeric value in % only, without the unit symbol.

Measured growth of Nc1nnnc2nc[nH]c12 : 17.1

Form field growth, entry CCC1(C)CC(CCNCc2ccccc2O)(c2ccc(C)cc2)CCO1 (stereo not drawn) : 117

get_value(item= O=C(N/N=C/c1ccc(N(CCCl)CCCl)cc1)c1cccc2ccccc12 , readout=growth) returns 87.7

Entry COC(=O)[C@H](Cc1ccccc1)NC(=O)c1csc([C@@H](C[C@H](C(C)C)N(C)C(=O)[C@@H](NC(=O)[C@H]2CCCCN2C)C2CC2)OC(C)=O)n1 — recorded growth = 16.1

Just so you know, measured growth for CCC1CN1CCCCN1CC1CC (stereo not drawn) came out at 100

get_value(item= COC(=O)[C@H](Cc1c[nH]c2ccccc12)NC(=O)[C@@H](OC)[C@@H]1Cc2cc3cc(OC4CC(OC5CC(O)C(O)C(C)O5)C(O)C(C)O4)c(C)c(O)c3c(O)c2C(=O)[C@H]1OC1CC(OC2CC(OC3CC(C)(O)C(O)C(C)O3)C(O)C(C)O2)C(O)C(C)O1 (stereo partly drawn) , readout=growth) returns -46.8

Record C[C@]12CCc3nc(Nc4ccccc4F)sc3C1=CC[C@@H]1[C@@H]2CC[C@]2(C)C(=O)CC[C@@H]12 . Reported growth: 80.1

Entry CN1CC(CNC(=O)OCc2ccccc2)CC2c3cccc4c3c(cn4C)CC21 (stereo not drawn) ; growth = -66.9

====

# Test system: SF-539 CNS
# Test summary: NCI-60 one-dose screen, 48 h
# Test conditions: 10 µM unless noted
Compounds without any hit were thinned out: in the full panel of roughly 83,000, 20% have a hit. Calls of active or inactive are those of the source. Rule for the calls: active = growth percent below 10; inactive = the rest.
Field 'call' accepts 1 (yes) for active, 0 (no) for inactive

## Input Field: outcome | Entry: COC(=O)[C@@H](C)C[C@H](Cc1ccc(F)cc1)NC(=O)c1csc([C@@H](C[C@H](C(C)C)N(C)C(=O)[C@@H](NC(=O)[C@H]2CCCCN2C)C2CC2)OC(C)=O)n1
## Output 1 (yes)

## Input Hello, I am checking results. What call was entered for CC1(C)N=C(N)N=C(N)N1c1ccc(CCCCc2ccc(Cl)c(S(=O)(=O)F)c2)c(Cl)c1 ?
## Output 0 (no)

## Input What call does the record list for O=C([O][Hg][CH2]C1COCC([CH2][Hg][O]C(=O)c2ccccc2)O1)c1ccccc1 (configuration not stated) ?
## Output 0 (no)

## Input Could you check what this test reported for O=C1C(=Cc2cn(Cc3ccccc3)c3ccccc23)C(=O)N(Cc2ccccc2)C(=O)N1Cc1ccccc1 ?
## Output 0 (no)

## Input Which outcome did this test record for the compound CC(C)=CCc1c(O)c(C(=O)CC(C)C)c(O)c2c(-c3ccccc3)cc(=O)oc12 ?
## Output 0 (no)

## Input Just curious, what result did COC1OC(CO)C(O)C(O)[CH]1[Hg][O]C(C)=O (configuration not stated) get here?
## Output 0 (no)

## Input How did this test come out for CC[C@H](C)[C@H](NC(=O)C12C3C4C1C1C2C3C41NC)C(=O)N(C)[C@H](C[C@@H](OC(C)=O)c1nc(C(=O)N[C@@H](Cc2ccccc2)C[C@H](C)C(=O)OC)cs1)C(C)C (some centres not stated) ?
## Output 1 (yes)
